All figures here come from patent US6864266B2.

# testSystem: recombinant human muscarinic receptor m3 (Homo sapiens, UniProt P20309)
# Sequence (P20309 whole entry): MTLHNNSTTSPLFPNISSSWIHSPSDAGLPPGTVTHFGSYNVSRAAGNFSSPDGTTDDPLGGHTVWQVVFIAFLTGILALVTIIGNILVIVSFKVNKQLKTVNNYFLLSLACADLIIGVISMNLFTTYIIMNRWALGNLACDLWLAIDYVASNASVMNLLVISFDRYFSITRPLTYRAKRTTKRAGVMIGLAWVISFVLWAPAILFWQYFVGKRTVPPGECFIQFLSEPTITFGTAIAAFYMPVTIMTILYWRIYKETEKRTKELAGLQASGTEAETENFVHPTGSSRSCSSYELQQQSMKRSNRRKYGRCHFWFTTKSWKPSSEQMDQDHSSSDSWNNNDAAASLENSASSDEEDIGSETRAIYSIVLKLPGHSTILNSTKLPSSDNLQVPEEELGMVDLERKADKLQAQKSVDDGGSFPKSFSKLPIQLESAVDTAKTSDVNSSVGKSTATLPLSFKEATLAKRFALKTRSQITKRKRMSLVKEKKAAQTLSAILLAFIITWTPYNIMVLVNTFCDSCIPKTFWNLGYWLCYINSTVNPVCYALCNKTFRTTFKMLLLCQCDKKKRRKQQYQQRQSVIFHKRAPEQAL
# assay: Radioligand binding studies, [3H]N-methyl scopolamine, scintillation proximity assay
# measurementParameters: CHO cell membranes, pIC50 converted to pKi by Cheng-Prusoff
Please respond with reported pKi for every item in the list.
Answers are plain numbers, as −log10 of the molar value.

[
  {
    "molecule": "CCCN(CC1CCN(C(=O)N2CCN(C)CC2)CC1)C1CCc2ccc(OS(=O)(=O)c3c(C)noc3C)cc2C1 (stereo not shown)",
    "observable": "pKi",
    "valueMeasured": 7.17
  },
  {
    "molecule": "CCCN(CC1CCN(S(C)(=O)=O)CC1)C1CCc2ccc(OCC)cc2C1 (stereo not shown)",
    "observable": "pKi",
    "valueMeasured": 7.33
  },
  {
    "molecule": "CCCN(CC1CCN(C(=O)NC)CC1)C1CCc2ccc(OC)cc2C1 (stereo not shown)",
    "observable": "pKi",
    "valueMeasured": 6.99
  }
]

Consider the record given below.
Data request: Reported pKi for CCCN(CC1CCN(C(=O)C2CCNCC2)CC1)C1CCc2ccc(OS(=O)(=O)c3c(C)noc3C)cc2C1 (stereo not shown) : what is it?
Data returned: 7.29

====

# testSystem: recombinant human muscarinic receptor m2 (Homo sapiens)
# Sequence (P08172 whole entry): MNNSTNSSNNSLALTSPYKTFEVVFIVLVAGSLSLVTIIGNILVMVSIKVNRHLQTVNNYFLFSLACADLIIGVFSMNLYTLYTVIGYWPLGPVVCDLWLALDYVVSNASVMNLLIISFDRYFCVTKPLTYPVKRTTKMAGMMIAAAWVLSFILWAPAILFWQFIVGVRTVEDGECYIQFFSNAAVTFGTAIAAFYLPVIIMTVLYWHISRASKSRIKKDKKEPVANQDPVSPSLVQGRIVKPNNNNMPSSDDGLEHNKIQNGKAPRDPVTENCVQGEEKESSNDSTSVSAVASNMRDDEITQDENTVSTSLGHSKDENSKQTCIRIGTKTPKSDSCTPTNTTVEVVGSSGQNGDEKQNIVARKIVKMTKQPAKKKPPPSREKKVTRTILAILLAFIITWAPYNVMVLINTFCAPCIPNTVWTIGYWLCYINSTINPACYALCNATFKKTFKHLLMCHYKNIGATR
# assay: Radioligand binding studies, [3H]N-methyl scopolamine, scintillation proximity assay
# measurementParameters: CHO cell membranes, pIC50 converted to pKi by Cheng-Prusoff
The threshold is 40 nM. Values of Ki beneath it are tagged condition met; values meeting or exceeding it are tagged condition not met.

[
  {
    "molecule": "CCN(CC1CCN(C(=O)NC(C)C)CC1)C1CCc2ccc(NC(=O)c3ccc(F)cc3)cc2C1 (centres unmarked) [Cpd 7]",
    "testSystem": "recombinant human muscarinic receptor m2 (Homo sapiens)",
    "group": "condition met"
  },
  {
    "molecule": "CCCN(CC1CCN(C(=O)c2ccco2)CC1)C1CCc2cc(OC)c(OC)cc2C1 (centres unmarked) [Cpd 70]",
    "testSystem": "recombinant human muscarinic receptor m2 (Homo sapiens)",
    "group": "condition not met"
  },
  {
    "molecule": "CCN(CC1CCN(C(=O)N2CCOCC2)CC1)C1CCc2ccc(NC(=O)c3ccc(S(C)(=O)=O)cc3)cc2C1 (centres unmarked) [Cpd 2]",
    "testSystem": "recombinant human muscarinic receptor m2 (Homo sapiens)",
    "group": "condition not met"
  }
]

Data request: In the record for CCCN(CC1CCN(S(C)(=O)=O)CC1)C1CCc2ccc(-c3ccco3)cc2C1 (centres unmarked) [Cpd 117] , is Ki less than 40 nM?
Data returned: condition not met

Data request: One more molecule: CCCN(CC1CCN(S(C)(=O)=O)CC1)C1CCc2ccc(OCC)cc2C1 (centres unmarked) [Cpd 104]
Data returned: condition met

Data request: One more molecule: CCCN(CC1CCN(S(C)(=O)=O)CC1)C1CCc2ccc(N)cc2C1 (centres unmarked) [Cpd 85]
Data returned: condition met

Data request: One more molecule: CCCN(CCC1CCN(C(=O)C2CCNCC2)CC1)[C@@H]1CCc2ccc(OC)cc2C1 [Cpd 116]
Data returned: condition met

Data request: One more molecule: CCCN(CC1CCN(C(=O)C2CCNCC2)CC1)C1CCc2ccc(OS(=O)(=O)c3c(C)noc3C)cc2C1 (centres unmarked) [Cpd 114]
Data returned: condition met
